Target: human glucagon receptor (human) (UniProt P47871)
Sequence (P47871 26-477): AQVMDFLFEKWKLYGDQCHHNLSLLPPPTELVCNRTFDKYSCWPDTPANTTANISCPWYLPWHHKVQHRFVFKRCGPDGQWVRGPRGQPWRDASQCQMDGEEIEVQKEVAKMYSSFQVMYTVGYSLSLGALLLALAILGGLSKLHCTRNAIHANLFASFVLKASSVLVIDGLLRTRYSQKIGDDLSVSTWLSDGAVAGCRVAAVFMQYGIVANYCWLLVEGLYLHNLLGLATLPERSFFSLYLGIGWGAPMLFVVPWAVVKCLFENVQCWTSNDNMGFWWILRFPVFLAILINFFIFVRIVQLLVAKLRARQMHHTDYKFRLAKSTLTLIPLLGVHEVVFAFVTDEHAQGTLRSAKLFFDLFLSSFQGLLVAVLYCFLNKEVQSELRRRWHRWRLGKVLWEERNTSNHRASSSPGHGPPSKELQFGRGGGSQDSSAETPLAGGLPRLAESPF
Assay: cell-based or functional assay
Starred links: 1 amine or outer side, 2 acyl side, 3 side chain; linkers in the order of their positions; H or OH if unused. Non-standard residues stand in square brackets, D forms with d. Groups on a side chain read outwards from the residue. No end group written: not given here. *: point of attachment. C18 diacid = O=C(O)CCCCCCCCCCCCCCCCC(=O)*; γGlu = O=C(O)[C@H](CCC(=O)[*:2])N[*:1]; αMeL = CC(C)C[C@](C)(N)C(=O)O; Dap = NC[C@H](N)C(=O)O; AEEA = NCCOCCOCC(=O)O; Aib = CC(C)(N)C(=O)O
Metric: cAMP Rel EC50, nM (1% HSA) (nM)
Unit nM implied. Number only.

Challenge: Sample YXQGTFTSDXSXXLDKKAQXAFIEYLIEXGESSGAPPPSGE (acylated peptide; synthetic construct; SITE 2: note = 2-Aminoisobutyric Acid; SITE 10: note = 3-(4-Pyridyl)-L-alanine; SITE 12: note = L-ornithine; SITE 13: note = alpha-methyl-leucine; SITE 17: note = Lysine is chemically modified through conjugation of the epsilon-amino group of the Lysine side chain with (2-[2-(2-) [Example 222] — what was its cAMP Rel EC50, nM (1% HSA)?
Response given: 440

Challenge: Follow-up entry: YXQGTXTSDYSILLDKKAQXAFIEYLLEGGPSSGAPPPE (not fully specified; synthetic construct; SITE 2: note = 2-Aminoisobutyric Acid; SITE 6: note = alpha-methyl-2-fluoro-L-phenylalanine; SITE 17: note = Lysine is chemically modified through conjugation of the epsilon-amino group of the Lysine side chain with (2-[2-(2-Amino-ethoxy)-ethoxy]-acetyl)2-(gamma-Glu)-CO-(CH2 )18) [Example 386]
Response given: 734

Challenge: Also, YXQGTXTSDYSILLDKKAQXAFIEYLEEGGPSSGAPPPSE (synthetic construct; SITE 2: note = 2-Aminoisobutyric Acid; SITE 6: note = alpha-methyl-2-fluoro-L-phenylalanine; SITE 17: note = Lysine is chemically modified through conjugation of the epsilon-amino group of the Lysine side chain with (gamma-Glu)2-CO-(CH2)16-CO2H; SITE 20: note = 2-Aminoisobutyric) [Example 433] please.
Response given: 532

Challenge: Can you check YXQGTFTSDXSXXLDXKAQXQFIEYLIAGGPSSGAPPPSGSEE (Lys acylated with (γGlu)2-C18 diacid; non-natural residues; C-amide; synthetic construct; SITE 2: note = 2-Aminoisobutyric Acid; SITE 10: note = 3-(4-Pyridyl)-L-alanine; SITE 12: note = L-ornithine; SITE 13: note = alpha-methyl-leucine; SITE 16: note = L-ornithine; SITE 17: note = Lysine is chemically modified through conjugation of the epsilon-amino group of the Lys) [Example 1000] next?
Response given: 501

Challenge: # iterate: YXQGTFTSDFSXXLDKKAQXAFIEWLLEGGSSSGAPPPSGT (synthetic construct; SITE 2: note = 2-Aminoisobutyric Acid; SITE 12: note = L-ornithine; SITE 13: note = alpha-methyl-leucine; SITE 17: note = Lysine is chemically modified through conjugation of the epsilon-amino group of the Lysine side chain with (2-[2-(2-Amino-ethoxy)-ethoxy]-acetyl)-(gamma-Glu)) [Example 174]
Response given: 307

Challenge: Further, for YXQGTFTSDXSRXLDKKAQXAFIEXLIEGGPSSGAPPPSGS (non-natural residues, AEEA-γGlu-C18 diacid lysine acylation, C-terminal amide; synthetic construct; SITE 2: note = 2-Aminoisobutyric Acid; SITE 10: note = 3-(4-Pyridyl)-L-alanine; SITE 13: note = alpha-methyl-leucine; SITE 17: note = Lysine is chemically modified through conjugation of the epsilon-amino group of the Lysine side chain with (2-[2-(2-Amino-ethoxy)-ethoxy]-acetyl)) [Example 950] ?
Response given: 327

Challenge: // repeat for YXQGTXTSDYXIXLDXKAQXXFIEYLLEGGPSSGAPPPS (synthetic construct; SITE 2: note = 2-Aminoisobutyric Acid; SITE 6: note = alpha-methyl-2-fluoro-L-phenylalanine; SITE 11: note = alpha-methyl-L-serine; SITE 13: note = alpha-methyl-leucine; SITE 16: note = L-ornithine; SITE 17: note = Lysine is chemically modified through conjugation of the epsilon) [Example 384] and report
Response given: 1730

Challenge: Now the binder YXQGTXTSDXXIXLDXKAQXXFIEXLIEGGPSSGEPPPSEG (synthetic construct; SITE 2: note = 2-Aminoisobutyric Acid; SITE 6: note = alpha-methyl-2-fluoro-L-phenylalanine; SITE 10: note = 3-(4-Pyridyl)-L-alanine; SITE 11: note = alpha-methyl-L-serine; SITE 13: note = alpha-methyl-leucine; SITE 16: note = L-ornithine; SITE 17: note = Lysine is chemically mo) [Example 401]
Response given: 111

Challenge: Same lookup for YXQGTXTSDYSIXLDKKAAXAFIEYLIETGPSSGAPPPSEG (synthetic construct; SITE 2: note = 2-Aminoisobutyric Acid; SITE 6: note = alpha-methyl-2-fluoro-L-phenylalanine; SITE 13: note = alpha-methyl-leucine; SITE 17: note = Lysine is chemically modified through conjugation of the epsilon-amino group of the Lysine side chain with (2-[2-(2-Amino-ethoxy)-et)) [Example 383] , please.
Response given: 530

Challenge: Now consider YXQGTFTSDFSXXLDKKAQXAFIEWLLEGGHSSGAPPPSGT (synthetic construct; SITE 2: note = 2-Aminoisobutyric Acid; SITE 12: note = L-ornithine; SITE 13: note = alpha-methyl-leucine; SITE 17: note = Lysine is chemically modified through conjugation of the epsilon-amino group of the Lysine side chain with (2-[2-(2-Amino-ethoxy)-ethoxy]-acetyl)-(gamma-Glu)) [Example 171] and answer again.
Response given: 502

Challenge: Field entry: Y[Aib]QGTFTSDYS[Dap][αMeL]LDKK([AEEA-γGlu-C18 diacid])AQ[Aib]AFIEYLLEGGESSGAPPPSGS-NH2 [Example 360]
Response given: 1470

Challenge: // repeat for YXQGTXTSDXSIXLDXKAQXAFIEYLEEGGPSSGAPPPS (synthetic construct; SITE 2: note = 2-Aminoisobutyric Acid; SITE 6: note = alpha-methyl-2-fluoro-L-phenylalanine; SITE 10: note = 3-(4-Pyridyl)-L-alanine; SITE 13: note = alpha-methyl-leucine; SITE 16: note = L-ornithine; SITE 17: note = Lysine is chemically modified through conjugation of the epsil) [Example 441] and report
Response given: 855
